# study-target: T1, GFP-9S library array, motif 4 ND N98T;D124K (synthetic construct, N98T;D124K)
# T1 chain: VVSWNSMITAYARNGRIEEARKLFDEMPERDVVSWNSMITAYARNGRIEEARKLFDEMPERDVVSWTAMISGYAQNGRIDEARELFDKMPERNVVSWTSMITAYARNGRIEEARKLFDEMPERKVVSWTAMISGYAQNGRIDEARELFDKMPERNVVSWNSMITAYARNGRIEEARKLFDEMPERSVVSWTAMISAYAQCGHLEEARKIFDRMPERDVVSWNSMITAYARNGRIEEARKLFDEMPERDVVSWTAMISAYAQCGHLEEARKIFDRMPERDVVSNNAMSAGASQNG
# test: high-throughput RNA pulldown from lysate on Ni-NTA beads; HRP: 50 mM Tris pH 8, 150 mM NaCl, 1 mM beta-mercaptoethanol, 50 ug/ml BSA, 3 ug/ml yeast RNA, 0.5% heparin; ITC and FP: Tris pH 8, 200 mM KCl, 5% glycerol; MST: 50 mM Tris pH 8, 200 mM NaCl, 1 mM DTT, BSA, heparin, 0.05% Tween 20
# condition-details: tags: N-terminal His-eGFP; label: 5' Cy5
Kd values by entry
Report the value in nM with no unit label.

binder="AUUAGACGUGA (ssRNA) [Cy5-rpoA-G]" value=131

Next item in the queue.
Input line: Give the reported value of Kd for this record: AUUACACGUGA (ssRNA) [Cy5-rpoA]
Output line: 131

Value source: paper PMC8809517
